Values compiled from patent US9975885B2.

- SYSTEM_NAME: PEDV-3CL^pro (Porcine epidemic diarrhea virus (strain CV777) (PEDV))
- Sequence (P0C6Y4 2998-3299 limits assumed): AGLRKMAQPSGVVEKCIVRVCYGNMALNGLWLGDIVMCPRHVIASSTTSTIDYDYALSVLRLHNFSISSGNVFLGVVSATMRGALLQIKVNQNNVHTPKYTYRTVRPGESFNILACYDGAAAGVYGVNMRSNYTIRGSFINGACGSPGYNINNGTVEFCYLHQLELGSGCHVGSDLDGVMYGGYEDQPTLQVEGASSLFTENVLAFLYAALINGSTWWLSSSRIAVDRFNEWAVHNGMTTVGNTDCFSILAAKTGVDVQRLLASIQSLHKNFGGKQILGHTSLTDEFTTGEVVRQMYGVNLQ
- EXPERIMENT_DESCRIPTION: biochemical
READOUT_LABEL: IC50

In [3]: df
Out[3]:
                                   compound  experimental_value
0  CC(C)(C)c1ccc(N(C(=O)c2c[nH]cn2)C(C(=O)NC2CCCC2)c2cccnc2)cc1 (centres unmarked)              0.7 µM
1  CC(C)(C)CNC(=O)C(c1cccnc1)N(C(=O)c1c[nH]cn1)c1ccc(C(C)(C)C)cc1 (centres unmarked)              1.4 µM
2  CC(C)(C)c1ccc(N(C(=O)c2c[nH]cn2)C(C(=O)NCc2ccccc2)c2cccnc2)cc1 (centres unmarked)              3.4 µM
3  CC(C)C(=O)Nc1ccc(N(C(=O)Cn2nnc3ccccc32)C(C(=O)NCc2cccnc2)c2cccc(F)c2)cc1 (centres unmarked)              8.3 µM

Turning now to a further record.
Data request: Given the compound CC(C)(C)OC(=O)CNC(=O)C(c1ccsc1)N(C(=O)Cn1nnc2ccccc21)c1ccc(NC(=O)C2CC2)cc1 (centres unmarked) , what is its reported IC50?
Data returned: 8.7 µM

====

- SYSTEM_NAME: HKU5-3CL^pro (Bat coronavirus HKU5 (BtCoV) (BtCoV/HKU5/2004))
- Sequence (P0C6W4 3339-3644 limits assumed): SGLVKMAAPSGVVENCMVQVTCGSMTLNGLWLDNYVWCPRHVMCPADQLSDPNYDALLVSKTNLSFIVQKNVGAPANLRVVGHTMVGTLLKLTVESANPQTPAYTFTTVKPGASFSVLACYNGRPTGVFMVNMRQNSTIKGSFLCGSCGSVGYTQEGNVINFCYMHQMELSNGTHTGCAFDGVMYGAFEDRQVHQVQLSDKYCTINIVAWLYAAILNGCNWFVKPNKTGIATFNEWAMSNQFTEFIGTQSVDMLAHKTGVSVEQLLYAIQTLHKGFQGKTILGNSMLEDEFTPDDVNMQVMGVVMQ
Decide using IC50 alone. Strictly below 9 µM: label 1. Equal to or above 9 µM: label 0.

Completed entries (count: 3):
                                   compound  label_class
0  O=C(Nc1ccc(N(C(=O)Cn2nnc3ccccc32)C(C(=O)NCc2cccnc2)c2ccsc2)cc1)C1CC1 (stereo not drawn)      label 1
1  CC(C)CNC(=O)C(c1cccnc1)N(C(=O)c1c[nH]cn1)c1ccc(C(C)(C)C)cc1 (stereo not drawn)      label 1
2  CC(C)(C)NC(=O)C(c1ccsc1)N(C(=O)Cn1nnc2ccccc21)c1ccc(NC(=O)C2CC2)cc1 (stereo not drawn) [Compound 2P, reference compound]      label 1

Data request: Below 9 µM on IC50? Entry CC(C)(C)NC(=O)C(c1cccnc1)N(C(=O)c1c[nH]cn1)c1ccc(C2CCCCC2)cc1 (stereo not drawn)
Data returned: label 1

Data request: Likewise for O=C(Nc1ccc(N(C(=O)Cn2nnc3ccccc32)C(C(=O)NCc2ccccc2)c2ccsc2)cc1)C1CC1 (stereo not drawn) ?
Data returned: label 1

Data request: Likewise for CC(C)(C)c1ccc(N(C(=O)c2c[nH]cn2)C(C(=O)NC2CCCC2)c2cccnc2)cc1 (stereo not drawn) ?
Data returned: label 1

Data request: Likewise for CC(C)(C)NC(=O)C(c1cccnc1)N(C(=O)c1c[nH]cn1)c1ccc(C2CC2)cc1 (stereo not drawn) ?
Data returned: label 0

Data request: Likewise for CC(C)Cc1ccc(N(C(=O)c2c[nH]cn2)C(C(=O)NC(C)(C)C)c2cccnc2)cc1 (stereo not drawn) ?
Data returned: label 0

Data request: Likewise for CC(C)(C)c1ccc(N(C(=O)c2c[nH]cn2)C(C(=O)NCc2ccccc2)c2cccnc2)cc1 (stereo not drawn) ?
Data returned: label 0

====

- SYSTEM_NAME: OC43-3CL^pro (Human coronavirus OC43 (HCoV-OC43), UniProt P0C6X6)
- Sequence (P0C6X6 3247-3549 limits assumed): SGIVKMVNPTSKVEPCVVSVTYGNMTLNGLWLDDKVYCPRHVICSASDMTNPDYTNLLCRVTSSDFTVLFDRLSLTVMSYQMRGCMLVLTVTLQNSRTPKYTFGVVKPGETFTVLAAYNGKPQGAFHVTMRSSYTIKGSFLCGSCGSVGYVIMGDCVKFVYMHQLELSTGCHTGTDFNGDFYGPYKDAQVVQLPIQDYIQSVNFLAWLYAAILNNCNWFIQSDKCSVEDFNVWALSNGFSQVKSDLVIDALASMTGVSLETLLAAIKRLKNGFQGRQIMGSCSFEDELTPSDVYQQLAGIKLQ
Known IC50 of a selection of compounds
Hey, just the number and the unit after it is fine.

COMPOUND	IC50
CC(C)(C)NC(=O)C(c1cccnc1)N(C(=O)c1c[nH]cn1)c1ccc(C2CCC2)cc1 (stereo not shown)	13.7 µM

Data request: Given the compound CC(C)(C)NC(=O)C(c1ccsc1)N(C(=O)Cn1cnc2ccccc21)c1ccc(NC(=O)C2CC2)cc1 (stereo not shown) , what is its reported IC50?
Data returned: 16.3 µM

Data request: Likewise for CC(C)(C)c1ccc(N(C(=O)c2c[nH]cn2)C(C(=O)NCc2ccccc2)c2cccnc2)cc1 (stereo not shown) ?
Data returned: 46.5 µM

Data request: Likewise for CC(C)C(=O)Nc1ccc(N(C(=O)Cn2nnc3ccccc32)C(C(=O)NCc2ccccc2)c2cccc(F)c2)cc1 (stereo not shown) [Compound 1P, reference compound] ?
Data returned: 6.9 µM
